# target of assay: Phospholipase A2, membrane associated (Homo sapiens, UniProt P14555)
# Sequence (P14555 whole entry): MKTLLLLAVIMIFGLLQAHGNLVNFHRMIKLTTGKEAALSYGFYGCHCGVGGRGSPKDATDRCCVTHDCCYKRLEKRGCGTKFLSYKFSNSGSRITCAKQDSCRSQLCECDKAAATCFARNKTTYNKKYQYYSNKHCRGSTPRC
# protocol details: Inhibition of human non-pancreatic sPLA2 using 1,2-dimyristoyl-sn-glycero-3-phosphocholine substrate after 5 mins by continuous fluorescence assay
# test context: read-out: IC50
assay metric: log10(IC50) (log10 of the value in µM)
log10 IC50, µM

Please give the measured log10(IC50) for this molecule: CCCCOc1ccc(-c2cc(C(=O)OC)c3cc(OC)ccc3n2)cc1
1.76

Same lookup for COC(=O)c1c(-c2ccccc2)c(C)nc2ccc(Cl)cc12 , please.
0.46

Same lookup for COC(=O)c1cc(CCc2ccccc2)nc2ccc(OC)cc12 , please.
0.18

Same lookup for COC(=O)c1c(Cc2ccccc2)c(C)nc2ccc(F)cc12 , please.
1.20

Same lookup for COC(=O)c1c(Cc2ccccc2)c(C)nc2ccc(OC)cc12 , please.
1.53

Same lookup for COC(=O)c1cc(Cc2ccccc2OC)nc2ccc(F)cc12 , please.
0.36
